Taken from patent US9346798B2.

target: Nav 1.7 (Homo sapiens (Human), UniProt Q15858); test: Nav 1.7 in vitro assay, IonWorks Quattro (IWQ) population patch-clamp; format: cell-based; conditions: HEK 293 cells stably transfected with Nav 1.7; 26th pulse to -20 mV
Sequence (Q15858 whole entry): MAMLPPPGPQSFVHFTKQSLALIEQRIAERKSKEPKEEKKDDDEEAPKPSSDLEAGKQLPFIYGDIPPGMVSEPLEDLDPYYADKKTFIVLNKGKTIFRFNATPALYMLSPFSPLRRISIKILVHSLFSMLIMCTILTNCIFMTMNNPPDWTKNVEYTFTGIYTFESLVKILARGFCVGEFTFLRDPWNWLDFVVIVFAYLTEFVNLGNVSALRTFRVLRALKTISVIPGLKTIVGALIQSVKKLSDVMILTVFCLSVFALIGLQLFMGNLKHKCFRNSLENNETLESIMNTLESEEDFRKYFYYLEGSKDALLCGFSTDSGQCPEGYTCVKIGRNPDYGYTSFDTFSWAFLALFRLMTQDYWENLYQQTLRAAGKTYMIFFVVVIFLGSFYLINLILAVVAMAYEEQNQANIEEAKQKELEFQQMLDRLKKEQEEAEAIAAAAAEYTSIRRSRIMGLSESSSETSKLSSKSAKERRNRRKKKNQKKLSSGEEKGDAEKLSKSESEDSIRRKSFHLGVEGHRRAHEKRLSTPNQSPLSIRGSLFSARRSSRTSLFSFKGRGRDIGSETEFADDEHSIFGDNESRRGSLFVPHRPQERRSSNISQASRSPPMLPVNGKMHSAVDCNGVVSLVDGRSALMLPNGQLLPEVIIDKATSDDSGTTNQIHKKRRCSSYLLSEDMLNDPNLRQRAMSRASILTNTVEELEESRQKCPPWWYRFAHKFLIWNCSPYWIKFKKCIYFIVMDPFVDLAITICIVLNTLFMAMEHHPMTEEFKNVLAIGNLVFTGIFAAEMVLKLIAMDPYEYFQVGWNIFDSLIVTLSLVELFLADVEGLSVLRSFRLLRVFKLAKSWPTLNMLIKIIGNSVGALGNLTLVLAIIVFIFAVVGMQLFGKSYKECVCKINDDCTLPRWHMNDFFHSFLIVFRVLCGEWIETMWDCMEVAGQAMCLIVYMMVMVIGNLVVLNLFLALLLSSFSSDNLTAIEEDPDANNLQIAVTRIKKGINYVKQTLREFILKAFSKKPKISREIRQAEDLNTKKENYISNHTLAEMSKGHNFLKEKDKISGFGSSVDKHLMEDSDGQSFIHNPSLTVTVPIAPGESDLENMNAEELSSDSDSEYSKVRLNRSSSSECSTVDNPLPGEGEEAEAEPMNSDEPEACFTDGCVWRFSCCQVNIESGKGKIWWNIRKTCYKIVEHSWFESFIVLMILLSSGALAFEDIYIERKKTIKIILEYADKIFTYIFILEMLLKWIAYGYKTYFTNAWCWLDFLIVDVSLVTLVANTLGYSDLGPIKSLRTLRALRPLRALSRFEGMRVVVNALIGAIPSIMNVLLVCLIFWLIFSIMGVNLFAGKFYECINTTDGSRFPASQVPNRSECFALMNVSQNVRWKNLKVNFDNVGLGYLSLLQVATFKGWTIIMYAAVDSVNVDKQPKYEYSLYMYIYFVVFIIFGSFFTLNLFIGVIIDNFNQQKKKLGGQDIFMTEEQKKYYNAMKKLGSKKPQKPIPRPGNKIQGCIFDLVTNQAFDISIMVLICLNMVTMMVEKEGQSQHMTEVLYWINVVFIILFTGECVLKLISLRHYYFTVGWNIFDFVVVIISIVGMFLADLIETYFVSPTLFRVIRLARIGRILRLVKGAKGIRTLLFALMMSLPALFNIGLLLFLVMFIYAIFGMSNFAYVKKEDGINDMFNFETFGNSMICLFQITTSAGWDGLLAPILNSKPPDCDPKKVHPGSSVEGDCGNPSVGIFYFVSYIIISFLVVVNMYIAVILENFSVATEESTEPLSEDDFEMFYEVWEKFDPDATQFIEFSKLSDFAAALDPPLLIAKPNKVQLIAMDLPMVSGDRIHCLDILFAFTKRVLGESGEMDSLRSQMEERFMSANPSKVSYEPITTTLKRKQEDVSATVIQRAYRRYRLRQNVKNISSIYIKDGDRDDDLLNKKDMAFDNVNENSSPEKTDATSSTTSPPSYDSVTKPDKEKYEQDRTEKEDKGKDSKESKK
// assign Satisfied if IC50 falls strictly below 0.6 µM, else Not satisfied (ties count as Not satisfied)

>>> assigned_category("COc1cc(Cl)ccc1N1C[C@@H](C)Oc2cc(S(=O)(=O)Nc3nccs3)ccc21 (single isomer, unassigned)")
"Satisfied"
>>> assigned_category("CCOc1ccc(N2CCOc3cc(S(=O)(=O)Nc4nccs4)ccc32)cn1")
"Not satisfied"
>>> assigned_category("COc1cc(C#N)ccc1CN1CCOc2cc(S(=O)(=O)Nc3nccs3)ccc21")
"Not satisfied"
>>> assigned_category("O=S(=O)(Nc1ncccn1)c1ccc2c(c1)OCCN2c1ccc(C(F)(F)F)cc1C1=CCNCC1")
"Satisfied"
>>> assigned_category("COc1cncc(N2CCOc3cc(S(=O)(=O)Nc4nccs4)ccc32)c1")
"Not satisfied"
>>> assigned_category("O=S(=O)(Nc1nccs1)c1ccc2c(c1)OCCN2c1ccc(Cl)c(C(F)(F)F)c1")
"Satisfied"
>>> assigned_category("O=S(=O)(Nc1nccs1)c1ccc2c(c1)OCCN2c1ccccc1C1=CCNCC1 [Example 59, 2,2,2-Trifluoroacetate]")
"Satisfied"
>>> assigned_category("Cc1ccc(F)cc1N1CCOc2cc(S(=O)(=O)Nc3nccs3)ccc21 [Example 79, 2,2,2-Trifluoroacetate]")
"Satisfied"
>>> assigned_category("O=S(=O)(Nc1ccccn1)c1ccc2c(c1)OCCN2c1ccc(C(F)(F)F)cc1Br")
"Not satisfied"
>>> assigned_category("O=S(=O)(Nc1nccs1)c1ccc2c(c1)OCCN2c1ccc(C(F)(F)F)cc1CO")
"Satisfied"
>>> assigned_category("Cn1nccc1-c1cc(C(F)(F)F)ccc1N1CCOc2cc(S(=O)(=O)Nc3nccs3)ccc21")
"Satisfied"
>>> assigned_category("O=S(=O)(Nc1nccs1)c1ccc2c(c1)OCCN2c1ccc2scnc2c1 [Example 70, 2,2,2-Trifluoroacetate]")
"Not satisfied"
>>> assigned_category("Cc1cc(C(F)(F)F)ccc1N1CCOc2cc(S(=O)(=O)Nc3nccs3)ccc21")
"Satisfied"
>>> assigned_category("N#Cc1cc(-c2cccc(F)c2)ccc1N1CCOc2cc(S(=O)(=O)Nc3nccs3)ccc21")
"Satisfied"
>>> assigned_category("Cc1ccc(Cl)c(N2CCOc3cc(S(=O)(=O)Nc4nccs4)ccc32)c1 [Example 67, 2,2,2-Trifluoroacetate]")
"Satisfied"
>>> assigned_category("Cc1nsc(NS(=O)(=O)c2ccc3c(c2)OCCN3c2ccc(C(F)(F)F)cc2Cl)n1")
"Not satisfied"
